The origin of these recorded values is paper PMC10127221.

Protein target, amino acids: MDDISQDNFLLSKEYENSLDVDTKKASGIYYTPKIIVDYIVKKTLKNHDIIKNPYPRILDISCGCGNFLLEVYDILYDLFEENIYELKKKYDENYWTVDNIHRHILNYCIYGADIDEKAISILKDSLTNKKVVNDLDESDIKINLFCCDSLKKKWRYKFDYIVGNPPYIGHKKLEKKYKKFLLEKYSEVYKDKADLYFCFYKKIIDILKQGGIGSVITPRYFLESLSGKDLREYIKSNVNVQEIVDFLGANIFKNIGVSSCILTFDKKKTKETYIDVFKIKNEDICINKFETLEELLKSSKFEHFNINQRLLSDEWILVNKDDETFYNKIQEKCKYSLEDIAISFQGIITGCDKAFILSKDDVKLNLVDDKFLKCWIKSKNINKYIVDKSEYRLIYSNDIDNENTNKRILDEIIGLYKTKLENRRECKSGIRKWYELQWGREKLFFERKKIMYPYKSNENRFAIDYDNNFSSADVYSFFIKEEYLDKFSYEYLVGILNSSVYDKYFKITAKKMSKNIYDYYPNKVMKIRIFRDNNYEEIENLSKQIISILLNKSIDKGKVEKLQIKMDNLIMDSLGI
property.measured: Ki (nM)
Report only the number, with the unit nM understood.

**Q:** Report measured Ki; entry is N=C(NCCSC[C@H]1O[C@@H](n2cnc3c(NCCCc4ccccc4)ncnc32)[C@H](O)[C@@H]1O)NCC1CCCCC1 [11a]
**A:** 90
